// data source = patent US20250361295A1

TEST SYSTEM: human LILRB4 (human, UniProt Q8NHJ6 22-448)
ASSAY PROTOCOL: cell-based or functional assay
Fold change (Compared to isotype) values for the binders below.
Field: numeric (fold). Do not append units.

INSERT INTO measurements (binder, experimental_result) VALUES
  ('ch4-E6-E4-B12 (antibody, V domains shown) VH: EVQLKESGAELVKPGASVKLSCKASGYTFTSHWMHWVKQRPGQGLEWIGEINPSNGRTNYNEKFTSKATLTVDQSSSTAYMQLSSLTSEDSAVYYCARGNLTTVVPFDYWGQGTALTVSS VL: DIVMTQSPSSLSASLGGKVTITCKASQDINKFIAWYQHKPGKGPRLLIHFTSTLQPGIPSRFSGSGSGRDYSFSISNLEPEDIATYFCLQYDLLLTFGGGTKLEIK', 8.43),
  ('ch48-E11-H7-B5 (antibody, V domains shown) VH: EVQLVESGGGLVKPGGSLKLSCAASGFTFSSYAMSWVRQTPEKRLEWVASITIGDDTYYPDSVKGRFTISRDHAKNILYLQVSSLRSEDTAMYSCARGVNSYGSSYRYFDVWGAGTTVTVSS VL: DIVMTQSHKFMSTSVGDRVSITCKASQDVSTAVAWYQQKPGQSPKLLIYWASTRHTGVPDRFTGSGSGTDYTLTISSVQAEDLALYYCQQHYSIPFTFGAGTKLEK', 41.4);

input: Using the record for ch42-C8-A12-F3-D11 (antibody, V domains shown) VH: EVHLVESGGDLVKPGGSLKLSCAASGFTFSSHGMSWVRQTPDKRLEWVATISSGGIYTYHPDSVKGRFSISRDNAKKTLYLQMSSLKSEDTGIYYCTRGQVGNWYFDVWGAGTTVTVSS VL: DIVITQSPAIMSASPGEKVTINCSASSSVSYMHWFQQTPGTSPKLWIYSTSNLASGVPARFSGSGSGTFYSLTISRMEAEDAATYYCQQRSSYPLTFGAGTKLELK , report its Fold change (Compared to isotype).
output: 9.73

input: Param item = ch26-H9-B9-B7 (antibody, V domains shown) VH: EVQRVESGGGLVQPGGSRKLSCAASGFTFSSFGMHWVRQAPEKGLEWVAYISSGSSTIYYADTVKGRFTISRDNPKNTLFLQMTSLRSEDTAMYYCARSDGKGAMDYWGQGTSVTVSS VL: DIVMTQSTSSLSASLGDRVTISCRASQDISNYLNWYQQKPDGTVKLLIYYTSRLHSGVPSRFSGSGSGTDYSLTISNLEQEDIATYFCQQGNTLPWTFGGGTKLEIK ; retrieve measured Fold change (Compared to isotype).
output: 17.3
